Origin of measurements: patent US20260092071A1

The compounds listed here are annotated with their DC50.
biological target: SMARCA2 (Homo sapiens); experiment: HiBiT assay for protein degradation, Hela SMARCA2-HiBiT cells (A series); format: cell-based; set-up: Hela cells were genetically modified via CRISPR/Cas9 to fuse HiBiT to the carboxy terminus of SMARCA2; host or cells: HeLa (CRISPR/Cas9 HiBiT knock-in); settings: Hela SMARCA2-HiBiT cells, 24 hours treatment; read-out: SMARC A2 Hela HiBit DC50
Sequence (P51531 whole entry): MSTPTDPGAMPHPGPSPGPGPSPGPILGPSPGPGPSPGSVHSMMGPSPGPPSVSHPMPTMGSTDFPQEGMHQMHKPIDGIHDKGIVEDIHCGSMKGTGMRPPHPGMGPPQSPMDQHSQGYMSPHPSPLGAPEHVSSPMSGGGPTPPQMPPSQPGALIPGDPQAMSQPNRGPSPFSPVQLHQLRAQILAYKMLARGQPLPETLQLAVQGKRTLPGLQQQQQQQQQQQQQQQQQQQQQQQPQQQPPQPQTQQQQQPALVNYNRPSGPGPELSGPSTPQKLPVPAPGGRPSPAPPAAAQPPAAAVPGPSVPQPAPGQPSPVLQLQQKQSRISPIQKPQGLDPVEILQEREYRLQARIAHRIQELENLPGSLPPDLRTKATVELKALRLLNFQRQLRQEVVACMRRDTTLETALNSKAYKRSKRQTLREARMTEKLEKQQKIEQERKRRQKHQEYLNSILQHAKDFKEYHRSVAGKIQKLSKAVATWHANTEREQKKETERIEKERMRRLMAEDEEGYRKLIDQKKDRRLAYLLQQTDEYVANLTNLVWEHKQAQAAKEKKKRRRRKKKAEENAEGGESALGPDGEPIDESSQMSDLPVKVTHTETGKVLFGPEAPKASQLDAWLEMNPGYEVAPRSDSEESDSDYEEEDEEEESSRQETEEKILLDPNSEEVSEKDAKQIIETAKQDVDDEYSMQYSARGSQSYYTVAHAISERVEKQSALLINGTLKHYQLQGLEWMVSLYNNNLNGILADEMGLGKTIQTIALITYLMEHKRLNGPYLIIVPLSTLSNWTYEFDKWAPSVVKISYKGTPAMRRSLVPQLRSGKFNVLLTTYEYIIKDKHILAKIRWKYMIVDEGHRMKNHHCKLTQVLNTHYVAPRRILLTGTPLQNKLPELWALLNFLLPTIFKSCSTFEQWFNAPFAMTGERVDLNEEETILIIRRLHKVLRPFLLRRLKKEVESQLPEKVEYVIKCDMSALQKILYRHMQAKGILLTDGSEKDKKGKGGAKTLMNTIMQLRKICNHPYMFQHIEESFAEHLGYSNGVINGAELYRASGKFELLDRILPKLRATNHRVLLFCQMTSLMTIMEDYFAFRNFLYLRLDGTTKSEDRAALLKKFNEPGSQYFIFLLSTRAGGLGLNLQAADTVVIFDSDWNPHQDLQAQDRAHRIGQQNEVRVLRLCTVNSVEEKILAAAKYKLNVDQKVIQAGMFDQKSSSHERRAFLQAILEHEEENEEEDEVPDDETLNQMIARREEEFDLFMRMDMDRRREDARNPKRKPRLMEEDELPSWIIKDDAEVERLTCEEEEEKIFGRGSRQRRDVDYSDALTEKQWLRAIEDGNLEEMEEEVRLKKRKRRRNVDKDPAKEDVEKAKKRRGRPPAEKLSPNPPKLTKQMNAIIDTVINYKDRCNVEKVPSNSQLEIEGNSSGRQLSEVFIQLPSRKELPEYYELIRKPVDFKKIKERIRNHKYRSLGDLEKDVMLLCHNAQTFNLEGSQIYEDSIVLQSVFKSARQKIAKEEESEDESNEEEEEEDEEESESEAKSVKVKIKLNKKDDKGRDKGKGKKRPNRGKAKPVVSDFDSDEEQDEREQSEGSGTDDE

Previously resolved entries follow.
Cc1ncsc1-c1ccc([C@H](CN2CCC3(COC3)C2)NC(=O)[C@@H]2C[C@@H](O)CN2C(=O)[C@@H](n2cc([C@H]3CC[C@H](CN4CCC(c5ccc6c(c5)-n5c(nc(=O)c7c(Cl)cccc75)C6(C)C)CC4)CC3)nn2)C(C)(C)C)cc1 : < 0.01 µM
Cc1ncsc1-c1ccc([C@H](C)NC(=O)[C@@H]2C[C@@H](O)CN2C(=O)[C@@H](NC(=O)CCN2CCC(c3ccc4c(c3)C3(CCCCC3)c3nc(=O)c5c(Cl)cccc5n3-4)CC2)C(C)(C)C)cc1 : 0.1 to 0.5 µM
Cc1ccncc1-c1ccc([C@H](CN2CCOCC2)NC(=O)[C@@H]2C[C@@H](O)CN2C(=O)[C@@H](n2cc([C@H]3CC[C@H](CN4CCC(c5ccc6c(c5)-n5c(nc(=O)c7c(Cl)cccc75)C65CCCCC5)CC4)CC3)nn2)C(C)(C)C)cc1 : < 0.01 µM
Cc1ncsc1-c1ccc([C@H](CN2CC3(COC3)C2)NC(=O)[C@@H]2C[C@@H](O)CN2C(=O)[C@@H](n2cc([C@H]3CC[C@H](CN4CCC(c5ccc6c(c5)-n5c(nc(=O)c7c(Cl)cccc75)C6(C)C)CC4)CC3)nn2)C(C)(C)C)cc1 : < 0.01 µM
Cc1ncsc1-c1ccc([C@H](CC(=O)N2CCC(c3ccc4c(c3)-n3c(nc(=O)c5c(Cl)cccc53)C43CCCCC3)CC2)NC(=O)[C@@H]2C[C@@H](O)CN2C(=O)[C@@H](n2cc(C3CC3)nn2)C(C)(C)C)cc1 : 0.01 to 0.1 µM
Cc1ncsc1-c1ccc([C@H](CN2CCOCC2)NC(=O)[C@@H]2C[C@@H](O)CN2C(=O)[C@@H](n2cc([C@H]3C[C@H](CN4CC5(CCC(c6ccc7c(c6)-n6c(nc(=O)c8c(Cl)cccc86)C76CCCCC6)CC5)C4)C3)nn2)C(C)(C)C)cc1 : 0.01 to 0.1 µM

Value of measured DC50 for the entry COC(=O)C1CN(C[C@H](NC(=O)[C@@H]2C[C@@H](O)CN2C(=O)[C@@H](n2cc([C@H]3CC[C@H](CN4CCC(c5ccc6c(c5)-n5c(nc(=O)c7c(Cl)cccc75)C65CCCCC5)CC4)CC3)nn2)C(C)(C)C)c2ccc(-c3scnc3C)cc2)C1 : < 0.01 µM

Value of measured DC50 for the entry COCCOCCOC[C@H](NC(=O)[C@@H]1C[C@@H](O)CN1C(=O)[C@@H](n1cc([C@H]2CC[C@H](CN3CCC(c4ccc5c(c4)-n4c(nc(=O)c6c(Cl)cccc64)C5(C)C)CC3)CC2)nn1)C(C)(C)C)c1ccc(-c2scnc2C)cc1 : < 0.01 µM

Value of measured DC50 for the entry Cc1ncsc1-c1ccc([C@H](CN2CCC3(COC3)C2)NC(=O)[C@@H]2C[C@@H](O)CN2C(=O)[C@@H](n2cc([C@H]3CC[C@H](CN4CCC(c5ccc6c(c5)-n5c(nc(=O)c7c(Cl)cccc75)C65CCCCC5)CC4)CC3)nn2)C(C)(C)C)cc1 : < 0.01 µM

Value of measured DC50 for the entry Cc1ncsc1-c1ccc([C@H](C)NC(=O)[C@@H]2C[C@@H](O)CN2C(=O)[C@@H](n2cc(CCCN3CCC(c4ccc5c(c4)C4(CCCCC4)c4nc(=O)c6c(Br)cccc6n4-5)CC3)nn2)C(C)(C)C)cc1 : < 0.1 µM

Value of measured DC50 for the entry CC(C)(C)[C@@H](C(=O)N1C[C@H](O)C[C@H]1C(=O)N[C@@H](CN1CCOCC1)c1ccc(-c2scnc2C(F)(F)F)cc1)n1cc([C@H]2CC[C@H](CN3CCC(c4ccc5c(c4)-n4c(nc(=O)c6c(Cl)cccc64)C54CCCCC4)CC3)CC2)nn1 : > 1 µM
